Test system: Trichosporon dermatis
Experiment: Antimicrobial activity against Trichosporon dermatis by broth microdilution method
Assay type: functional
Conditions: Cutaneotrichosporon dermatis
OBSERVED PROPERTY: MIC50 (µg/mL)
Answers are plain numbers, in µg/mL.

>  <SMILES>
C[C@@H](c1ncncc1F)[C@](O)(Cn1cncn1)c1ccc(F)cc1F

>  <RECORDED RESULT>
0.5

$$$$
>  <SMILES>
OC(Cn1cncn1)(Cn1cncn1)c1ccc(F)cc1F

>  <RECORDED RESULT>
16

$$$$

# context switch: different molecule, same MIC50
Prompt: Name the recorded MIC50 of the molecule listed here: "Nc1nc(=O)[nH]cc1F"
Completion: 16
